# credit: PubChem BioAssay AID686978

- method: qHTS for Inhibitors of human tyrosyl-DNA phosphodiesterase 1 (TDP1): qHTS in cells in absence of CPT; further: nearly all actives have a fitted effect of over 55% in size
- assay.setup: DT40 Tdp1-/- hTDP1 cells, no CPT, ATP luminescence, 48 h
Among all 420,000 compounds or so, about 64,000 (15%) were called active. Not shown: some 27% with an inconclusive outcome. The call rests on the fitted dose curve; in most records, active means well fitted inhibition curve with a large enough effect; inconclusive means small, poorly fitted or top-dose-only effect; inactive means flat fitted curve, though single readings scatter. These entries were drawn from the full list.
Choose the fitting class; nothing outside T = active, F = inactive is accepted.

# molecule, class.assignment
data = [
    ("Cc1nn(-c2ccccc2)c2c1C(=O)NC(=O)C(C)(C)C2", "F"),
]

Fill in: this test's call for CC(C)CN(C(=O)CSc1nncn1C)C1CCS(=O)(=O)C1 (stereo not given) is ___ F

Fill in: this test's call for `C[C@H](NC(=O)c1ccccc1Cl)C(=O)OCC(=O)N1CCN(c2ccccc2)CC1` is ___ F

Fill in: this test's call for `COCCNC(=O)COc1ccc(C)c(C)c1` is ___ F

Fill in: this test's call for `Oc1ccc(Cl)cc1/C=N/c1nc2ccccc2[nH]1` is ___ F

Fill in: this test's call for Cc1nn(-c2ncccn2)c2c1C(=O)CC(C)(C)C2Br (stereo not given) is ___ T

Fill in: this test's call for `O=C(O)c1ccc2c3c(cccc13)C(=O)N(OS(=O)(=O)c1ccccc1)C2=O` is ___ F

Fill in: this test's call for `CCN(CC)Cc1nc2sc(C)c(C)c2c(=O)[nH]1` is ___ F

Fill in: this test's call for CC1(C)OC(=O)C2=C(CC(c3ccccc3)OC2CCc2ccccc2)O1 (stereo not given) is ___ T

Fill in: this test's call for `COc1ccc(N2C(=O)CN=C2Nc2cccc(C)c2C)cc1OC` is ___ F

Fill in: this test's call for `Cc1cnc(NC(=O)Cn2cnc3c2c(=O)n(C)c(=O)n3C)s1` is ___ F

Fill in: this test's call for `Cc1noc(C)c1COC(=O)COc1ccc(-c2ccccc2)cc1` is ___ F

Fill in: this test's call for `CC[C@@H]1CC2=C(C(=O)OC(C)(C)O2)[C@@H](CC)O1` is ___ F

Fill in: this test's call for CCC(C)NC(=O)CSC1=Nc2ccccc2C2=NC(CCC(=O)NCc3ccco3)C(=O)N12 (stereo not given) is ___ F

Fill in: this test's call for `Cc1noc(NS(=O)(=O)c2ccc(NC(=O)c3oc4ccc(F)cc4c3C)cc2)c1C` is ___ F

Fill in: this test's call for `Cc1ccc(Cn2nnc3c(=O)n(CC(=O)N4CCCCC4)cnc32)cc1` is ___ F

Fill in: this test's call for Cc1ccc(S(=O)(=O)N2CCCC2C(=O)OCc2nc3sc(C)c(C)c3c(=O)[nH]2)cc1 (stereo not given) is ___ F

Fill in: this test's call for `O=c1cc(-c2ccccc2)n2c(SCc3ccccc3)nnc2[nH]1` is ___ F

Fill in: this test's call for `Cc1csc(NC(=O)Nc2ccccc2[N+](=O)[O-])n1` is ___ F

Fill in: this test's call for CCCC(C)NC(=O)C1CCN(C(=O)C2CC(=O)N(c3ccc(C)cc3)C2)CC1 (stereo not given) is ___ F
